Reference source for all entries: the supplement of paper PMC10567573

Listing: protein stability index of selected sequences
- PROCEDURE SUMMARY: protein stability index of a GFP-peptide fusion (GPS, HEK-293T) (PSI 1-6); higher = more stable;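 further: 24-mer peptide tiles fused after GFP, lentivirally expressed, FACS-sorted into six equal bins by GFP/DsRed ratio, decoded by Illumina sequencing, PSI is the read-weighted mean bin number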
- MEASUREMENT CONDITIONS: treatment: MLN4924 1 uM, 8 h; c terminus: a fixed tail appended
Lab note: record the figure alone, no unit after it.

AACLLQLDGLIQQCGETMKETVNV [GMCL1]; 3.07
MEMYNVIMTVKEDQFSALGLDPCL [SLC6A17]; 2.26

Q: # query: protein stability index of entry HDPLWRRHCKKYWLISEEEKTQKN [FBXO3]
A: 3.99

Q: What about LLFKLVAPVTFRHHRYDDLVRTLY [CPN1] ?
A: 2.83

Q: Try this sequence next: HTRSITSCCFDPDSQRVASVSLDR [WDR88]
A: 3.44

Q: Another sequence: HENAVQGSAVEVQTYQPPWKALSE [ISL2]
A: 4.02

Q: Please answer likewise for RAVDWWALGILIFEMLSGFPPFFD [PRKX]
A: 2.78

====

- PROCEDURE SUMMARY: protein stability index of a GFP-peptide fusion (GPS, HEK-293T) (PSI 1-6); higher = more stable
- MEASUREMENT CONDITIONS: treatment: MLN4924 1 uM, 8 h; c terminus: a fixed tail appended
Entry flag: Y if protein stability index reaches 4; N if it does not.

Worked examples follow.
PWARGCGMFTFLSSVTAAVSGLLV [SLC2A12]; N
PQRPRSAPRTSSCAERLQSEEQVS [FCHO1]; Y
FNYRYFEVEEADGNKQWWFGGGCD [CPOX]; N
TDQPPLVQAIFSGDPEEIRMLIHK [ANKRD44]; N

Q: Exam item: decide whether the reported protein stability index for EDTDPSTLSFNMSDKYPIQDTELP [EDARADD] is at least 4.
A: Y

Q: Item: ECDNMLMLLSVSQSMSEEEREKVT [SEPHS2]
A: Y

Q: Also, KQNEKLNNQEEETEFKELDGLREA [CCDC89] please.
A: Y

Q: Lookup FGYLGDRYNRKYLMCGGIAFWSLV [SPNS1]
A: N

Q: # iterate: EKKDTITNDSLSLKPSWFDFGFAI [MIA2]
A: N

Q: Lookup SGMVTIITGLPLDNPSVLSGPMQA [SMG5]
A: N

Q: Follow-up entry: RTSSGTSREKTACAINKVGVSFST [FAM98B]
A: N

Q: Input GRHHSQSTEVQAHPYSTTFQESAS [TEKT4]
A: Y

Q: What do we get for SVSKAQSIYGIPHSTLEYKVKERL [LCOR] ?
A: N

Q: Another: HIFGDLDSYIPLHEDLLTRIGEAT [NET1]
A: N

Q: What do you get for YREESDSLGQDLRRLRQELLKTEA [DAPK3] ?
A: N

Q: Also need RSALWCLGLNAAFWFFALTSLRLV [RETREG3] , thanks.
A: N

Q: Here is the next sequence: WKVLTWLRYTLWIPLYPLGCLAEA [HACD3]
A: N

Q: What do you get for LMDYIGINLATMNSCINPIALYFV [EDNRA] ?
A: N

====

- PROCEDURE SUMMARY: protein stability index of a GFP-peptide fusion (GPS, HEK-293T) (PSI 1-6); higher = more stable
- MEASUREMENT CONDITIONS: treatment: MLN4924 1 uM, 8 h; c terminus: a fixed tail appended
Returns True if the recorded protein stability index is greater than or equal to 3, and False otherwise.

As a guide, the following entries are already answered.
MSFPHFGHPYRGASQFLASASSST [IRX6]; True
ESLPVSLGPESWQQIAMDPEEVKS [BCL2L13]; True
WRERAVEKRERALEEVERAILEMK [ZBED2]; True

Q: Please check the record RENKRMADSLASKVTRLKSLALDI [BET1L] and state if its protein stability index is at or above 3.
A: False

Q: Now this one: VSQWYELVVFTASMEIYGSAVADK [CTDNEP1]
A: True

Q: # repeat for SIHYAAAYGHRQCLELVSCFVLFS [ANKRD44]
A: False

Q: Also RLVRVFRIFKLSRHSKGLQILGQT [KCNA1] ?
A: False

Q: Same lookup for IIVTIMASQSLGSPMYFFLASLSF [OR4A15] , please.
A: True

Q: Also RADFVLAANSYDLAIKAITSSAKV [FKBP8] , if possible.
A: False
